Measured selectivity ratio accompanies every entry in the list below.
- runDescription: Selectivity index, ratio of IC50 for human HepG2 cells to IC50 for chloroquine susceptible Plasmodium falciparum D6
- Format: toxicity, cell-based
- particulars: read-out: Ratio IC50
measureName: selectivity ratio

[[record]]
compound = "CC(CCNCC12CC3CC(CC(C3)C1)C2)Nc1ccnc2ccccc12 (configuration not stated)"
experimentalresult = 136

[[record]]
compound = "CC(CCCNCC12CC3CC(CC(C3)C1)C2)Nc1ccnc2cc(Cl)ccc12 (configuration not stated)"
experimentalresult = 1160

[[record]]
compound = "CC(CNc1ccnc2cc(Cl)ccc12)NCCC12CC3CC(CC(C3)C1)C2 (configuration not stated)"
experimentalresult = 4190

[[record]]
compound = "CC(CCCNCCC12CC3CC(CC(C3)C1)C2)Nc1ccnc2ccccc12 (configuration not stated)"
experimentalresult = 133

[[record]]
compound = "CC(CCNCCC12CC3CC(CC(C3)C1)C2)Nc1ccnc2cc(Cl)ccc12 (configuration not stated)"
experimentalresult = 1870

[[record]]
compound = "CC(CCCNCCC12CC3CC(CC(C3)C1)C2)Nc1c(F)cnc2cc(Cl)ccc12 (configuration not stated)"
experimentalresult = 9

[[record]]
compound = "CC(NCCCCNc1ccnc2cc(Cl)ccc12)C12CC3CC(CC(C3)C1)C2 (configuration not stated)"
experimentalresult = 441


* * *

- runDescription: Selectivity index, ratio of IC50 for human HepG2 cells to IC50 for chloroquine susceptible Plasmodium falciparum D6
- Type: toxicity, cell-based
- particulars: read-out: Ratio IC50
selectivity ratio vs 200: less than gives 1; not less than gives -1.

[[record]]
molecule = "CC(CCCNc1ccnc2cc(Cl)ccc12)NCC12CC3CC(CC(C3)C1)C2 (stereo not given)"
classassignment = 1

[[record]]
molecule = "CC(CCCNCC12CC3CC(CC(C3)C1)C2)Nc1c(F)cnc2cc(Cl)ccc12 (stereo not given)"
classassignment = 1

[[record]]
molecule = "CC(CCCNCCC12CC3CC(CC(C3)C1)C2)Nc1ccnc2cc(Cl)ccc12 (stereo not given)"
classassignment = -1

[[record]]
molecule = "CC(NCCCNc1ccnc2cc(Cl)ccc12)C12CC3CC(CC(C3)C1)C2 (stereo not given)"
classassignment = -1

[[record]]
molecule = "CC(CCNCCC12CC3CC(CC(C3)C1)C2)Nc1c(F)cnc2ccccc12 (stereo not given)"
classassignment = 1

[[record]]
molecule = "CC(CCCNc1ccnc2cc(Cl)ccc12)NCCC12CC3CC(CC(C3)C1)C2 (stereo not given)"
classassignment = -1

[[record]]
molecule = "CC(CCNCC12CC3CC(CC(C3)C1)C2)Nc1c(F)cnc2ccccc12 (stereo not given)"
classassignment = 1

[[record]]
molecule = "CC(CCNCC12CC3CC(CC(C3)C1)C2)Nc1ccnc2cc(Cl)ccc12 (stereo not given)"
classassignment = -1

[[record]]
molecule = "CC(CCNCCC12CC3CC(CC(C3)C1)C2)Nc1c(F)cnc2cc(Cl)ccc12 (stereo not given)"
classassignment = 1

[[record]]
molecule = "CC(CCNCCC12CC3CC(CC(C3)C1)C2)Nc1ccnc2ccccc12 (stereo not given)"
classassignment = -1


* * *

- runDescription: Octanol-water partition coefficient, logP of the compound
- Format: physicochemical
Measured logP accompanies every entry in the list below.
measureName: logP

[[record]]
compound = "CC(CCNCC12CC3CC(CC(C3)C1)C2)Nc1ccnc2cc(Cl)ccc12 (configuration not stated)"
experimentalresult = 3.85

[[record]]
compound = "CC(CCNCC12CC3CC(CC(C3)C1)C2)Nc1c(F)cnc2cc(Cl)ccc12 (configuration not stated)"
experimentalresult = 3.25


* * *

- runDescription: Half life in mouse hepatocytes at 1 uM by LC-MS/MS analysis
- Type: ADME, cell-based, Hepatocyte
measureName: half-life at 1 µM (h)

[[record]]
compound = "CC(CCNCC12CC3CC(CC(C3)C1)C2)Nc1c(F)cnc2cc(Cl)ccc12 (stereo unspecified)"
measurename = "half-life at 1 µM"
experimentalresult = 1.32


* * *

- runDescription: Half life in human liver microsomes at 1 uM by LC-MS/MS analysis
- Assay type: ADME
Measured half-life at 1 µM accompanies every entry in the list below.
measureName: half-life at 1 µM (min)

[[record]]
molecule = "CC(CCNCC12CC3CC(CC(C3)C1)C2)Nc1c(F)cnc2cc(Cl)ccc12 (stereo unspecified)"
measurename = "half-life at 1 µM"
experimentalresult = 13

[[record]]
molecule = "CC(CNCCC12CC3CC(CC(C3)C1)C2)Nc1ccnc2cc(Cl)ccc12 (stereo unspecified)"
measurename = "half-life at 1 µM"
experimentalresult = 57

[[record]]
molecule = "CC(CNc1ccnc2cc(Cl)ccc12)NCCC12CC3CC(CC(C3)C1)C2 (stereo unspecified)"
measurename = "half-life at 1 µM"
experimentalresult = 27

[[record]]
molecule = "CC(CCNCCC12CC3CC(CC(C3)C1)C2)Nc1ccnc2cc(Cl)ccc12 (stereo unspecified)"
measurename = "half-life at 1 µM"
experimentalresult = 60

[[record]]
molecule = "CC(CCNCC12CC3CC(CC(C3)C1)C2)Nc1ccnc2cc(Cl)ccc12 (stereo unspecified)"
measurename = "half-life at 1 µM"
experimentalresult = 60

[[record]]
molecule = "CC(CNCC12CC3CC(CC(C3)C1)C2)Nc1ccnc2cc(Cl)ccc12 (stereo unspecified)"
measurename = "half-life at 1 µM"
experimentalresult = 11


* * *

- Test system: RAW264.7
- runDescription: Cytotoxicity against mouse RAW264.7 cells
- Format: cell-based
pIC50: −log10 of the molar value.
Measured pIC50 accompanies every entry in the list below.
measureName: pIC50

[[record]]
compound = "CC(CNCC12CC3CC(CC(C3)C1)C2)Nc1ccnc2cc(Cl)ccc12 (centres undefined)"
testedon = "RAW264.7"
experimentalresult = 5.54

[[record]]
compound = "CC(CNc1ccnc2cc(Cl)ccc12)NCC12CC3CC(CC(C3)C1)C2 (centres undefined)"
testedon = "RAW264.7"
experimentalresult = 5.42

[[record]]
compound = "CC(NCCCNc1ccnc2cc(Cl)ccc12)C12CC3CC(CC(C3)C1)C2 (centres undefined)"
testedon = "RAW264.7"
experimentalresult = 5.50

[[record]]
compound = "CC(CNCCC12CC3CC(CC(C3)C1)C2)Nc1ccnc2cc(Cl)ccc12 (centres undefined)"
testedon = "RAW264.7"
experimentalresult = 5.54


* * *

Measured pIC50 accompanies every entry in the list below.
- System: HepG2
- runDescription: Cytotoxicity against human HepG2 cells after 48 hrs by MTT assay
- Assay type: cell-based
- particulars: HepG2, 48 h
pIC50: −log10 of the molar value.
measureName: pIC50

[[record]]
molecule = "CC(CCCNCCC12CC3CC(CC(C3)C1)C2)Nc1c(F)cnc2cc(Cl)ccc12 (configuration not stated)"
experimentalresult = 5.58

[[record]]
molecule = "CC(CNc1ccnc2cc(Cl)ccc12)NCCC12CC3CC(CC(C3)C1)C2 (configuration not stated)"
experimentalresult = 4.60

[[record]]
molecule = "CC(CCCNCC12CC3CC(CC(C3)C1)C2)Nc1c(F)cnc2cc(Cl)ccc12 (configuration not stated)"
experimentalresult = 5.45

[[record]]
molecule = "CC(NCCCCNc1ccnc2cc(Cl)ccc12)C12CC3CC(CC(C3)C1)C2 (configuration not stated)"
experimentalresult = 5.51

[[record]]
molecule = "CC(CCNCCC12CC3CC(CC(C3)C1)C2)Nc1ccnc2ccccc12 (configuration not stated)"
experimentalresult = 5.80

[[record]]
molecule = "CC(CCCNc1ccnc2cc(Cl)ccc12)NCC12CC3CC(CC(C3)C1)C2 (configuration not stated)"
experimentalresult = 5.79

[[record]]
molecule = "CC(CCCNCC12CC3CC(CC(C3)C1)C2)Nc1ccnc2cc(Cl)ccc12 (configuration not stated)"
experimentalresult = 4.61

